Listed next: entries and their corresponding diameter of the inhibition zone (DIZ).
- Test system: Candida albicans
- experimental-details: Antifungal activity against Candida albicans ATCC 10231 assessed as growth inhibition at 4 mg/disc after 48 hrs by disc diffusion assay
- Assay type: functional
Units required after the number.

CCOC(=O)[C@H]1[C@H](C(F)(F)F)[C@@H]2C=CC=NN2[C@H]1C(=O)c1ccc(C)cc1 31 mm
CCOC(=O)[C@H]1[C@H](C(F)(F)F)[C@@H]2C=CC=NN2[C@H]1C(=O)c1ccc(F)cc1 29 mm
CCOC(=O)c1c(C(F)(F)F)c2cccnn2c1C(=O)c1ccc(F)cc1 29 mm
CCOC(=O)c1c(C(F)(F)F)c2cccnn2c1C(=O)c1ccc(Cl)cc1 26 mm
Cc1ccc(C(=O)[C@H]2C[C@H](C(=O)OCC(F)(F)F)[C@@H]3C=CC=NN23)cc1 30 mm

For `O=C(OCC(F)(F)F)[C@H]1C[C@H](C(=O)c2ccc(Cl)cc2)N2N=CC=C[C@@H]12` , write its diameter of the inhibition zone (DIZ).
37 mm

For `O=C(OCC(F)(F)F)[C@H]1C[C@H](C(=O)c2ccc(F)cc2)N2N=CC=C[C@@H]12` , write its diameter of the inhibition zone (DIZ).
27 mm

For `CCOC(=O)c1c(C(F)(F)F)c2cccnn2c1C(=O)c1ccc(C)cc1` , write its diameter of the inhibition zone (DIZ).
32 mm
